# run description: Cyclic voltammetry, redox potentials
# Type: physicochemical
# Design: unit not given here
# condition context: 1 mM in acetonitrile, 0.1 M tetrabutylammonium hexafluorophosphate, Ag-AgCl reference
parameter measured: Redox1

* CN1CCN(c2ccc3c(=O)n4c(nc3c2)C(=O)c2cc(Cl)ccc2-4)CC1 | −692
* CN(CCO)c1ccc2c(=O)n3c(nc2c1)C(=O)c1cc(F)ccc1-3 | −630
* O=C1c2cc(OC(F)(F)F)ccc2-n2c1nc1cc(SCCO)ccc1c2=O | −600
* CCCCCCCC(=O)OCCN(C)c1ccc2c(=O)n3c(nc2c1)C(=O)c1cc(Cl)ccc1-3 | −709
* O=C1c2cc(Cl)ccc2-n2c1nc1cc(N3CCCCC3)ccc1c2=O | −696
* O=C1c2cc(Cl)ccc2-n2c1nc1cc(F)ccc1c2=O | −586
* COc1cccc2c(=O)n3c(nc12)C(=O)c1cc(I)ccc1-3 | −640
* O=C1c2cc(F)ccc2-n2c1nc1c(F)cccc1c2=O | −593

----------
# run description: Solubility of DN49 in various solvents
# Type: physicochemical
# condition context: 3,4-dihydro-2H-pyran, organic solvent or mixture
parameter measured: solubility

GET /values?readout=solubility&item= `O=C1c2ccccc2-n2c1nc1ncccc1c2=O` < 25 mg/mL

----------
# run description: Solubility of DN49 in various solvents
# Type: physicochemical
# condition context: Benzyl alcohol, 30 °C, organic solvent or mixture; Benzyly alcohol
parameter measured: solubility

Given O=C1c2ccccc2-n2c1nc1ncccc1c2=O [DN49] , state its recorded solubility. > 25 mg/mL

----------
# run description: Cyclic voltammetry, redox potentials
# Format: physicochemical
# Design: unit not given here
# condition context: 1 mM in acetonitrile, 0.1 M tetrabutylammonium hexafluorophosphate, Ag-AgCl reference
parameter measured: Redox 2

* O=C1c2cc(Cl)ccc2-n2c1nc1cc(F)ccc1c2=O | −1242
* CN1CCN(c2ccc3c(=O)n4c(nc3c2)C(=O)c2cc(Cl)ccc2-4)CC1 | −1324
* CCCCCCCC(=O)OCCN(C)c1ccc2c(=O)n3c(nc2c1)C(=O)c1cc(Cl)ccc1-3 | −1375
* COc1cccc2c(=O)n3c(nc12)C(=O)c1cc(I)ccc1-3 | −1230
* CN(CCO)c1ccc2c(=O)n3c(nc2c1)C(=O)c1cc(F)ccc1-3 | −1281
* O=C1c2cc(Cl)ccc2-n2c1nc1cc(N3CCCCC3)ccc1c2=O | −1348
